Target: Gal4-RORγ-LBD (Homo sapiens, UniProt P51449)
Construct: expressed in transfected cells
Sequence (P51449 269-508 limits assumed): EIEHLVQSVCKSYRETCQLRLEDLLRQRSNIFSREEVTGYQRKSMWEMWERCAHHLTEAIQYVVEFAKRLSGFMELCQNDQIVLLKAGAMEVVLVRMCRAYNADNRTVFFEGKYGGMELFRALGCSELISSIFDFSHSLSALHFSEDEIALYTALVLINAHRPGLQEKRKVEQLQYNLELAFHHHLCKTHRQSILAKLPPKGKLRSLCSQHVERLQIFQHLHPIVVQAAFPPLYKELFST
Test: Gal4-RORγ Luciferase Reporter Assay in HEK-293T Cells
Format: cell-based
Conditions: HEK-293 cells, luciferase reporter, in presence of ursolic acid
EC50 by entry:

Solved cases below.
- compound: "O=C(CC[C@H]1CN(S(=O)(=O)c2cccc(C(F)(F)F)c2)c2cc(/C=C/c3c(F)cccc3Cl)ccc2O1)N1CC2(COC2)C1 [Example 127I]"
  EC50: "500 to 5000 nM"
- compound: "C/C(=C\\c1ccc2c(c1)N(S(=O)(=O)c1cccc(C(F)(F)F)c1)C[C@H](CCCN1CCC(C(=O)O)CC1)O2)c1c(F)cccc1Cl"
  EC50: "500 to 5000 nM"

Task: Return reported EC50. Input compound: C/C(=C\c1ccc2c(c1)N(S(=O)(=O)c1cccc(C(F)(F)F)c1)C[C@H](CCC(=O)N1CCS(=O)(=O)CC1)O2)c1c(F)cccc1Cl [Example 127C]
Output: < 500 nM
